molecular target: hROMK (human Kir1.1) (Homo sapiens (Human)); experiment: Thallium Flux Assay (FluxOR, CHO T-Rex hROMK stable cell line); conditions: CHO T-Rex hROMK cells, 10-point concentration response curve; read-out: Human ROMK TH Flux IC50
Listing of entries alongside the reported pIC50.
// pIC50 here means minus log10 of the molar concentration (mol/L)

Item under review: Cc1c([C@@H](O)CNCc2cn(-c3ccc4oc(=O)n(C)c4c3)nn2)ccc2c1COC2=O . Reported pIC50?
7.26

Can you handle Cc1cc(-n2cc(CNC[C@H](NS(=O)(=O)C3CC3)c3ccc4c(c3C)COC4=O)cn2)ncc1C#N next?
6.41

====

target: hROMK (human Kir1.1) (Homo sapiens (Human), UniProt P48048); assay: Thallium Flux Assay (FluxOR, CHO T-Rex hROMK stable cell line); conditions: CHO T-Rex hROMK cells, 10-point concentration response curve; read-out: Human ROMK TH Flux IC50
Sequence (P48048 whole entry): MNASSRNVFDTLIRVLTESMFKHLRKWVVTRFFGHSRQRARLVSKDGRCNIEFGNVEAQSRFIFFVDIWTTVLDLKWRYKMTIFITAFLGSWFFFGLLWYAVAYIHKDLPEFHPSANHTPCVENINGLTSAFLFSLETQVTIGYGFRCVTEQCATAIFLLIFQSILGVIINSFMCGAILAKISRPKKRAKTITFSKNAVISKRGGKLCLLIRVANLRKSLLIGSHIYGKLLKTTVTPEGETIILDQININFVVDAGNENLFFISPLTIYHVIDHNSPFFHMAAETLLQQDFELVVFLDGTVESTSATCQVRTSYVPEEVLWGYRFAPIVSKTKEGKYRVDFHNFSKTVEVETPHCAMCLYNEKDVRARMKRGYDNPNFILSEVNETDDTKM
Response field class: string, computed from recorded IC50 by ranges low = under 80 nM, moderate = from 80 nM up to 500 nM, high = 500 nM and over

>  <compound>
Cc1c([C@@H](O)CNCc2c[nH]c(-c3ccc4oc(=O)n(C)c4c3)n2)ccc2c1COC2=O

>  <assigned_label>
high

$$$$

Please report the category associated with Cc1c(C(CO)NCCc2cccc(-c3ccc(C#N)c(F)c3)c2)ccc2c1COC2=O (single isomer, unassigned) [Example 15-I] , nothing else.
high

====

molecular target: hERG channels (Homo sapiens (Human), UniProt Q12809); assay: hERG Manual Patch Clamp Assay (HEK 293 cells stably expressing hERG channels); format: cell-based; settings: human, HEK 293 cells stably expressing hERG channels, pH 7.4
Sequence (Q12809 whole entry): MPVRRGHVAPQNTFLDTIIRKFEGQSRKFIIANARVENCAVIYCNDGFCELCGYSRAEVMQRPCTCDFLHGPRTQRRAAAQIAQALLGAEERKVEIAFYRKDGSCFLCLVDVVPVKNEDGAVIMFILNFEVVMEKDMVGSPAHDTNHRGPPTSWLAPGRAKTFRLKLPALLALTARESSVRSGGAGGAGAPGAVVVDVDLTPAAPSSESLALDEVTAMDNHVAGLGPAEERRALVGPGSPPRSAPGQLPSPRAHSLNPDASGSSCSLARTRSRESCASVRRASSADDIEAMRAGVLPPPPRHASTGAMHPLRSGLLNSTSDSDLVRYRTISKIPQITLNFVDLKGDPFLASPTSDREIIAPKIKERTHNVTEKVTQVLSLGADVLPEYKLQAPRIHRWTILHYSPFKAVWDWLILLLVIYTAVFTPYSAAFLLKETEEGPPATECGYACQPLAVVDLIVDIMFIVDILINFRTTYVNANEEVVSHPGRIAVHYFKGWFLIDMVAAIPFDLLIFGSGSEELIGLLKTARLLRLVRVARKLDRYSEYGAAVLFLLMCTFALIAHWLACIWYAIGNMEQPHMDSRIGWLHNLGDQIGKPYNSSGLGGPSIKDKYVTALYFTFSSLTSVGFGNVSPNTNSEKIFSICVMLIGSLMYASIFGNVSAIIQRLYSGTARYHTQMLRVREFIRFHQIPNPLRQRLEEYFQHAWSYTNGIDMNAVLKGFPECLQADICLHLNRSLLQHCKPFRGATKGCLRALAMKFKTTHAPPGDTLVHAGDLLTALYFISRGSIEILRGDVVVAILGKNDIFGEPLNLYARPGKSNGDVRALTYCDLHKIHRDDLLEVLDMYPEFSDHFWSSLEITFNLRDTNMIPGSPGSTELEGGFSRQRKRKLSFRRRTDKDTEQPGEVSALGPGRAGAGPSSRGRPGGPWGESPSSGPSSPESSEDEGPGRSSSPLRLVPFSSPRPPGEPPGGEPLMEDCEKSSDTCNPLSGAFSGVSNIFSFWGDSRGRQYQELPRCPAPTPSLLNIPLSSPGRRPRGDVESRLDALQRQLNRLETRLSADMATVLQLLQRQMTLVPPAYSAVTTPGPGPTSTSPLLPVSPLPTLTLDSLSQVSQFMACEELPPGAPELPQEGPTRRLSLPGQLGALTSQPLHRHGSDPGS
measurement_type: inhibition at 1 µM (%)
Respond with the bare value in %.

>  <compound>
COc1cc(-c2cc(CNC[C@H](O)c3ccc4c(c3C)COC4=O)on2)ncc1C#N [Example 137]

>  <experimental_value>
7.6

$$$$
>  <compound>
COCCN[C@@H](CNCc1cnn(-c2cc(C)c(C#N)cn2)c1)c1ccc2c(c1C)COC2=O [Example 57]

>  <experimental_value>
35

$$$$
>  <compound>
Cc1c([C@@H](O)CNCc2cn(-c3ccc4oc(=O)n(C)c4c3C)cn2)ccc2c1COC2=O [Example 149]

>  <experimental_value>
8.6

$$$$

# next compound below
Need inhibition at 1 µM of Cc1c([C@@H](O)CNCc2cnn(-c3ccc4oc(=O)n(C)c4c3)c2)ccc2c1COC2=O [Example 81] , thanks.
6

====

biological target: hERG channels (Homo sapiens (Human), UniProt Q12809); assay: hERG Manual Patch Clamp Assay (HEK 293 cells stably expressing hERG channels); format: cell-based; details: human, HEK 293 cells stably expressing hERG channels, pH 7.4
Would you mind labelling by inhibition at 1 µM? At or over 10% is satisfied, under is not satisfied.

Recorded results for 3 molecules are shown here.
>  <molecule>
Cc1c([C@@H](O)CNCc2ccc(-n3cc(C#N)cn3)nc2)ccc2c1COC2=O [Example 177]

>  <assigned_label>
satisfied

$$$$
>  <molecule>
Cc1cc(-n2cc(CNC[C@H](O)c3ccc4c(c3C)COC4=O)c(C(F)F)n2)ncc1C#N [Example 93]

>  <assigned_label>
satisfied

$$$$
>  <molecule>
Cc1nc(-n2cc(CNC[C@H](O)c3ccc4c(c3C)COC4=O)cn2)ncc1C#N (single isomer, unassigned) [Example 50]

>  <assigned_label>
not satisfied

$$$$

Evaluate COc1cc(-n2cc(CNC(C)C(O)c3ccc4c(c3C)COC4=O)nn2)ncc1C#N (single isomer, unassigned) [Example 91-I] : inhibition at 1 µM at minimum 10%?
satisfied

Also check Cc1cc(-n2cc(CNC[C@H](NCCO)c3ccc4c(c3C)COC4=O)cn2)ncc1C#N [Example 56]
not satisfied

Next: CCOc1cc(-n2cc(CNC[C@H](O)c3ccc4c(c3C)COC4=O)cn2)ncc1C#N [Example 152]
satisfied

Record: Cc1c([C@@H](O)CNCc2ccc(-n3cnc(C#N)c3)nc2)ccc2c1COC2=O [Example 131]
satisfied

Here is the next molecule: COc1nn(-c2ncc(CNC[C@H](O)c3ccc4c(c3C)COC4=O)cn2)cc1C#N [Example 113]
satisfied

Consider next the molecule Cc1cc(-n2cc(CNC[C@H](NS(C)(=O)=O)c3ccc4c(c3C)COC4=O)cn2)ncc1C#N [Example 61] in the same way.
not satisfied

Next entry: CCOc1cc(-n2ncc(CNC[C@H](O)c3ccc4c(c3C)COC4=O)n2)ncc1C#N [Example 155]
satisfied

Same for Cc1nc(-n2cc(CNC[C@H](O)c3ccc4c(c3C)COC4=O)cn2)nc(C)c1C#N [Example 87]
not satisfied

One more molecule: Cc1c(-c2cnn(CCNC[C@H](O)c3ccc4c(c3C)COC4=O)c2)ccc2c1COC2=O [Example 43]
not satisfied

Can you check COc1nc(-n2cc(CNC[C@H](O)c3ccc4c(c3C)COC4=O)cn2)ccc1C#N [Example 48] next?
satisfied

Further, for Cc1cc(-c2ccc(CNCC(O)c3ccc4c(c3C)COC4=O)cn2)ncc1C#N (single isomer, unassigned) [Example 4-I] ?
satisfied

Now the same for Cc1c([C@@H](O)CNCc2ccc(-n3ccnc3)nc2)ccc2c1COC2=O [Example 109]
satisfied

Follow-up entry: Cc1c([C@@H](O)CNCc2cnc(-n3cnc(C(F)(F)F)c3)nc2)ccc2c1COC2=O [Example 96]
satisfied

====

target: hROMK (human Kir1.1) (Homo sapiens (Human), UniProt P48048); assay: Thallium Flux Assay (FluxOR, CHO T-Rex hROMK stable cell line); details: CHO T-Rex hROMK cells, 10-point concentration response curve; read-out: Human ROMK TH Flux IC50
measurement_type: pIC50
Scale note: pIC50 = -log10(concentration in M).

Known results for compounds:
>  <test_smiles>
Cc1c([C@@H](O)CNCc2cn(-c3ccc4oc(=O)n(C)c4c3C)cn2)ccc2c1COC2=O

>  <pIC50>
7.08

$$$$
>  <test_smiles>
Cc1c([C@@H](O)CNCc2cnn(-c3cc(C4CC4)c(C#N)cn3)c2)ccc2c1COC2=O

>  <pIC50>
6.70

$$$$
>  <test_smiles>
Cc1c([C@@H](O)CNCc2cnc(-n3cnc(C#N)c3)nc2)ccc2c1COC2=O

>  <pIC50>
7.92

$$$$

Notebook entry, hROMK (human Kir1.1) (Homo sapiens (Human), UniProt P48048) assay: pIC50 of COc1cc(-n2cnc(CNC[C@H](O)c3ccc4c(c3C)COC4=O)c2)ncc1C#N = ?
7.14

====

target: hERG channels (Homo sapiens (Human), UniProt Q12809); assay: hERG Manual Patch Clamp Assay (HEK 293 cells stably expressing hERG channels); format: cell-based; conditions: human, HEK 293 cells stably expressing hERG channels, pH 7.4
Mark satisfied for reported inhibition at 1 µM of 10% or greater; mark not satisfied for anything smaller.

>  <compound>
COc1cc(-n2cc(CNC[C@H](O)c3ccc4c(c3C)COC4=O)cn2)cc2c1oc(=O)n2C

>  <assigned_label>
not satisfied

$$$$
>  <compound>
COc1cc(-n2cc(CNC[C@H](O)c3ccc4c(c3C)COC4=O)cn2)nc(C)c1C#N

>  <assigned_label>
satisfied

$$$$
>  <compound>
Cc1c([C@@H](O)CNCc2ccc(-n3cnc(C#N)n3)nc2)ccc2c1COC2=O

>  <assigned_label>
satisfied

$$$$
>  <compound>
Cc1cc(-n2cc(CNC[C@H](O)c3ccc4c(c3C)COC4=O)cn2)cnc1C#N

>  <assigned_label>
satisfied

$$$$
>  <compound>
COc1nc(-n2cc(CNC[C@H](O)c3ccc4c(c3C)COC4=O)cn2)cc(C)c1C#N

>  <assigned_label>
satisfied

$$$$

Is reported inhibition at 1 µM greater than or equal to 10% here: COC(=O)N[C@@H](CNCc1cnn(-c2cc(C)c(C#N)cn2)c1)c1ccc2c(c1C)COC2=O
satisfied

Now consider Cc1c([C@@H](O)CNCc2ccc(-n3cc(C#N)c(OC(F)F)n3)nc2)ccc2c1COC2=O .
satisfied

How about this compound: Cc1c([C@@H](O)CNCc2cnc(-n3cc(C#N)c(C(F)F)n3)nc2)ccc2c1COC2=O
satisfied

Check Cc1cnc(-n2cc(CNC[C@H](O)c3ccc4c(c3C)COC4=O)cn2)cc1C#N too.
satisfied

Same for Cc1cc(-n2cc(CNC(C)C(O)c3ccc4c(c3C)COC4=O)cn2)ncc1C#N (single isomer, unassigned)
satisfied

Thanks! And Cc1cn(-c2ncc(CNC[C@H](O)c3ccc4c(c3C)COC4=O)cn2)cn1 ?
not satisfied

====

molecular target: hERG channels (Homo sapiens (Human), UniProt Q12809); test: hERG Manual Patch Clamp Assay (HEK 293 cells stably expressing hERG channels); format: cell-based; details: human, HEK 293 cells stably expressing hERG channels, pH 7.4
measurement_type: inhibition at 1 µM (%)
Give the value in % but do not write % after it.

Known inhibition at 1 µM results, listed for orientation:
>  <compound>
Cc1c(C(O)CNCc2ccc(-c3ccc4oc(=O)n(C)c4c3)nc2)ccc2c1COC2=O (single isomer, unassigned)

>  <units_symbol>
%

>  <experimental_value>
13

$$$$
>  <compound>
COc1nc(-n2cc(CNC[C@H](O)c3ccc4c(c3C)COC4=O)nn2)cc(C)c1C#N

>  <units_symbol>
%

>  <experimental_value>
11

$$$$
>  <compound>
Cc1c(C(O)CNCc2ccc3c(ccn3-c3ccc4c(c3)COC4=O)c2)ccc2c1COC2=O (stereo not shown)

>  <units_symbol>
%

>  <experimental_value>
83

$$$$

Would you kindly share the measured inhibition at 1 µM for Cc1c([C@@H](O)CNCc2cnn(-c3cnc(C#N)cn3)c2)ccc2c1COC2=O ?
50

And for CCOc1cc(-n2cc(CNC[C@H](O)c3ccc4c(c3C)COC4=O)nn2)ncc1C#N ?
15

Here is the next compound: Cc1cc(-c2cc(CNC[C@H](O)c3ccc4c(c3C)COC4=O)on2)ncc1C#N
8.6
